Each entry below carries its recorded IRF reporter.
tested on: RAW-Dual (murine macrophage reporter line); experiment: IRF reporter (Lucia luciferase) activity fold change vs agonist alone; higher = enhanced IRF activity; details: modulator concentration 10 µM; agonist: 3'3'-cGAMP 10 ug/mL
Quick one: just the number, no unit, thanks!

Some entries whose results are on file:
[Q] Which IRF reporter value belongs to CCSC1=C(C#N)C2(CCCC2)C(C#N)C(=O)N1 (stereo unspecified) ?
[A] 0.789

[Q] Bench note: what IRF reporter did CN(C)CCCNc1cc(C(C)(C)C)nc2c(-c3ccccc3)cnn12 show?
[A] 0.0482

[Q] Entry CS(=O)(=O)O.Cc1ccc(N(CC2=NCCN2)c2cccc(O)c2)cc1 : reported IRF reporter = ?
[A] 0.628

[Q] Which IRF reporter value is on record for O=C(c1ccc(S(=O)(=O)N2CCCC2)cc1)N1CC(Nc2ccncn2)C1 ?
[A] 0.969

***
[Q] So what does the record say about IRF reporter for Cc1ccc(OCC(=O)N2CCN(c3ccc(-n4cncn4)nn3)CC2)c(C(C)(C)C)c1 ?
[A] 0.964

[Q] Find the recorded IRF reporter belonging to COc1cc(O)c2c(=O)cc(-c3ccc(O)cc3)oc2c1 and report it.
[A] 0.795

[Q] Which measured IRF reporter value corresponds to COC(=O)C1=CN(CC2CCCO2)C=C(C(=O)OC)C1c1cccc(Br)c1 (stereo unspecified) ?
[A] 0.975

[Q] Reported IRF reporter for CCCOc1ccc(C(=O)OCCN(CC)CC)cc1N.Cl : what is it?
[A] 1.01

[Q] Need IRF reporter, item CC(=O)OC1(C(C)=O)CCC2C3C=C(C)C4=CC(=O)CCC4(C)C3CCC21C (stereo unspecified)
[A] 1.04

[Q] Which IRF reporter reading was recorded for the compound CCc1nc2ccccc2[nH]1 ?
[A] 0.998

[Q] Request the reported IRF reporter associated with COc1cc(NC(=O)NCc2nc(C)cc(N3CCOCC3)n2)cc(OC)c1
[A] 0.886

[Q] Which IRF reporter is listed for CC(C)NCC(O)COc1ccc(CCOCC2CC2)cc1.Cl (stereo unspecified) ?
[A] 0.907

[Q] Sample COc1ccc(N(CC(=O)Nc2ccccc2C(F)(F)F)S(C)(=O)=O)cc1 — what was its IRF reporter?
[A] 0.723

[Q] Give the measured IRF reporter of COc1cccc2c1C(=O)c1c(O)c3c(c(O)c1C2=O)C[C@@](O)(C(=O)CO)C[C@@H]3O[C@@H]1C[C@H](N)[C@@H](O)[C@H](C)O1 .
[A] 0.264

[Q] Given C[C@@H](O[C@H]1OCCN(Cc2nc(=O)[nH][nH]2)[C@H]1c1ccc(F)cc1)c1cc(C(F)(F)F)cc(C(F)(F)F)c1 , state its recorded IRF reporter.
[A] 1.64

[Q] Which IRF reporter is reported for this compound? CC1CCN(C2=NC(=O)C(=Cc3cccc4ccccc34)S2)CC1
[A] 0.963

[Q] Given the compound OC(CNC1CCCCC1)Cn1c2ccc(Cl)cc2c2cc(Cl)ccc21 (stereo unspecified) , what is its reported IRF reporter?
[A] 0.11

[Q] What does the record list as IRF reporter for CC1(C)OC[C@@H](COC(=O)CCc2ccc(OC[C@@H](O)CNCCNC(=O)N3CCOCC3)cc2)O1.Cl ?
[A] 0.985

[Q] Quick check: IRF reporter of COc1ccc(OC)c(-c2csc(NC(=O)C3CC3)n2)c1 ?
[A] 0.935

[Q] I'd like to know its IRF reporter. The compound in question is CC(C)Sc1ccc(CC(=O)N2CCC(S(C)(=O)=O)C2)cc1 (stereo unspecified)
[A] 0.946

[Q] # IRF reporter lookup, item CCOC(=O)C1=C(C)NC(C)=C(C(=O)OC)C1c1ccco1 (stereo unspecified)
[A] 0.95
